Can you tell me Activity for the items I'm about to list?
Tested on: Mus musculus
test-details: Cardioprotective activity in transgenic B6 mouse expressing cynomolgus monkey CETP assessed as increase in HDL-cholesterol level at 10 mg/kg, po BID measured after 24 hrs of first dose
Type: functional
Answers without a unit are incomplete; give the number and then its unit.

Reported Activity, compound "COc1cc(F)c(C(C)C)cc1-c1ccc(F)cc1CN1C(=O)O[C@H](c2cc(C(F)(F)F)cc(C(F)(F)F)c2)[C@@H]1C" : ____
8 mg/dL

Reported Activity, compound COc1cc(F)c(C(C)C)cc1-c1ccc(C(F)(F)F)cc1CN1C(=O)O[C@H](c2cc(C(F)(F)F)cc(C(F)(F)F)c2)[C@@H]1C [ANACETRAPIB] : ____
28 mg/dL

Reported Activity, compound "COc1cc(F)c(C(C)C)cc1-c1ccc(SC(F)(F)F)cc1CN1C(=O)O[C@H](c2cc(C(F)(F)F)cc(C(F)(F)F)c2)[C@@H]1C" : ____
12.4 mg/dL

Reported Activity, compound "COc1cc(F)c(C(C)C)cc1-c1ccc(C(C)(C)F)cc1CN1C(=O)O[C@H](c2cc(C(F)(F)F)cc(C(F)(F)F)c2)[C@@H]1C" : ____
23.2 mg/dL

Reported Activity, compound "COc1cc(F)c(C(C)C)cc1-c1ccc(C2CC2)cc1CN1C(=O)O[C@H](c2cc(C(F)(F)F)cc(C(F)(F)F)c2)[C@@H]1C" : ____
20.6 mg/dL

====

Can you tell me Activity for the items I'm about to list?
Test system: Mus musculus
test-details: Cardioprotective activity in transgenic B6 mouse expressing cynomolgus monkey CETP assessed as increase in HDL-cholesterol level at 10 mg/kg, po BID measured after 24 hrs of first dose
Assay type: functional
Answer format: numeric, mg/dL implied, no suffix.

Lab note: need Activity for "COc1cc(F)c(C(C)C)cc1-c1ccc(Br)cc1CN1C(=O)O[C@H](c2cc(C(F)(F)F)cc(C(F)(F)F)c2)[C@@H]1C" on Mus musculus, anyone have it?
23

Lab note: need Activity for "COc1cc(F)c(C(C)C)cc1-c1ccc(C)cc1CN1C(=O)O[C@H](c2cc(C(F)(F)F)cc(C(F)(F)F)c2)[C@@H]1C" on Mus musculus, anyone have it?
13.8

Lab note: need Activity for "COc1cc(F)c(C(C)C)cc1-c1ccc(C#N)cc1CN1C(=O)O[C@H](c2cc(C(F)(F)F)cc(C(F)(F)F)c2)[C@@H]1C" on Mus musculus, anyone have it?
14.8

Lab note: need Activity for "COc1cc(F)c(C(C)C)cc1-c1ccc(C(C)(C)C)cc1CN1C(=O)O[C@H](c2cc(C(F)(F)F)cc(C(F)(F)F)c2)[C@@H]1C" on Mus musculus, anyone have it?
21

Lab note: need Activity for "COc1cc(F)c(C(C)C)cc1-c1ccc(Cl)cc1CN1C(=O)O[C@H](c2cc(C(F)(F)F)cc(C(F)(F)F)c2)[C@@H]1C" on Mus musculus, anyone have it?
12.7

Lab note: need Activity for "COc1cc(F)c(C(C)C)cc1-c1ccc([N+](=O)[O-])cc1CN1C(=O)O[C@H](c2cc(C(F)(F)F)cc(C(F)(F)F)c2)[C@@H]1C" on Mus musculus, anyone have it?
21.5

Lab note: need Activity for "COc1cc(F)c(C(C)C)cc1-c1ccc(SC)cc1CN1C(=O)O[C@H](c2cc(C(F)(F)F)cc(C(F)(F)F)c2)[C@@H]1C" on Mus musculus, anyone have it?
16.4

====

Sequence of the target: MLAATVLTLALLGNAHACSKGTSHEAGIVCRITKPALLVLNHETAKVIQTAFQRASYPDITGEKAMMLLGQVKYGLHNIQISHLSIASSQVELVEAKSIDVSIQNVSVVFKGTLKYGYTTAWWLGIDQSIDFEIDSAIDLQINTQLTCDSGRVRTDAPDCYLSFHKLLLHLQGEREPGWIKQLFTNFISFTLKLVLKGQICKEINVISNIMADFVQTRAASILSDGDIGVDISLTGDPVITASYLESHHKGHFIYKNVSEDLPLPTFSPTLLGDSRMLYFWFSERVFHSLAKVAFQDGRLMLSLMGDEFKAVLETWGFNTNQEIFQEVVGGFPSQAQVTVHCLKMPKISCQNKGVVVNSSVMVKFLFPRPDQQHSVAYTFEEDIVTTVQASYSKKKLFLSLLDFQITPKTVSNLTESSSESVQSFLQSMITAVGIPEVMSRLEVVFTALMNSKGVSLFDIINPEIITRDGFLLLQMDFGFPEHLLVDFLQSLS
measurement-type: log10 IC50 (log10 of the value in µM)
Hello, just confirming the data are log10 of IC50 with units of µM.

Reported log10 IC50, compound "CCCS(=O)(=O)c1ccc(-c2cc(C(C)C)c(F)cc2OC)c(CN2C(=O)O[C@H](c3cc(C(F)(F)F)cc(C(F)(F)F)c3)[C@@H]2C)c1" : ____
0.84

Reported log10 IC50, compound "COc1cc(F)c(C(C)C)cc1-c1ccc(C(C)C)cc1CN1C(=O)O[C@H](c2cc(C(F)(F)F)cc(C(F)(F)F)c2)[C@@H]1C" : ____
-1.27

Reported log10 IC50, compound "COc1cc(F)c(C(C)C)cc1-c1ccc(C2CC2)cc1CN1C(=O)O[C@H](c2cc(C(F)(F)F)cc(C(F)(F)F)c2)[C@@H]1C" : ____
-1.61

Reported log10 IC50, compound "COc1cc(F)c(C(C)C)cc1-c1ccccc1CN1C(=O)O[C@H](c2cc(C(F)(F)F)cc(C(F)(F)F)c2)[C@@H]1C" : ____
-1.51

Reported log10 IC50, compound "COc1cc(F)c(C(C)C)cc1-c1ccc(C2=CCCC2)cc1CN1C(=O)O[C@H](c2cc(C(F)(F)F)cc(C(F)(F)F)c2)[C@@H]1C" : ____
-0.60

Reported log10 IC50, compound "COc1cc(F)c(C(C)C)cc1-c1ccc(C(C)(C)C)cc1CN1C(=O)O[C@H](c2cc(C(F)(F)F)cc(C(F)(F)F)c2)[C@@H]1C" : ____
-1.60

Reported log10 IC50, compound "COc1cc(F)c(C(C)C)cc1-c1ccc(Br)cc1CN1C(=O)O[C@H](c2cc(C(F)(F)F)cc(C(F)(F)F)c2)[C@@H]1C" : ____
-1.70
